Source of measurements: ChEMBL document CHEMBL1961873

Reported inhibition values for a set of molecules
Biological target: Aurora kinase C (Homo sapiens);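 also: values are the mean inhibition of Aurora-C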
Sequence (whole entry): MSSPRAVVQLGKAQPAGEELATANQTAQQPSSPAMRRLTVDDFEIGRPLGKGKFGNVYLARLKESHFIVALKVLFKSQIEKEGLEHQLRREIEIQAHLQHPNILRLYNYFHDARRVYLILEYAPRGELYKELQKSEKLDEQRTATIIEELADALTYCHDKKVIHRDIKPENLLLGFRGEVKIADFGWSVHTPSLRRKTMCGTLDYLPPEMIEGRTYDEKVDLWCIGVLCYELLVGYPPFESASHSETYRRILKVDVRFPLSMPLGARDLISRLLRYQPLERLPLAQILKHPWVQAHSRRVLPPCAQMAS
Details: at 0.1 µM
Answer with a number only, understood to be in %.

As a guide, the following entries are already answered.
Smiles Entry	Unit Spec	inhibition
COc1cccc(-n2ncc3c(N/N=C/c4ccc(C(=O)NCCN(C)C)cc4)ncnc32)c1	%	5.58
CS(=O)(=O)Nc1ccc(-c2ccc3c(NC(=O)C4CC4)n[nH]c3c2)cc1	%	1.71

Give inhibition only, for CS(=O)(=O)CCNCc1ccoc1-c1ccc2ncnc(Nc3ccc(OCc4ccccc4)cc3)c2c1 , using Aurora kinase C (Homo sapiens) data.
3.25

Give inhibition only, for COc1cccc(Nc2nccc(-c3cnn4ncccc34)n2)c1 , using Aurora kinase C (Homo sapiens) data.
33.2

Give inhibition only, for COC(=O)Nc1nc2ccc(Oc3ccc(NC(=O)Nc4cc(C(F)(F)F)ccc4F)cc3)cc2s1 , using Aurora kinase C (Homo sapiens) data.
9.05

====

Molecular target: MAP kinase-interacting serine/threonine-protein kinase 1 (Homo sapiens) (UniProt Q9BUB5)
Sequence (Q9BUB5 whole entry, looked up): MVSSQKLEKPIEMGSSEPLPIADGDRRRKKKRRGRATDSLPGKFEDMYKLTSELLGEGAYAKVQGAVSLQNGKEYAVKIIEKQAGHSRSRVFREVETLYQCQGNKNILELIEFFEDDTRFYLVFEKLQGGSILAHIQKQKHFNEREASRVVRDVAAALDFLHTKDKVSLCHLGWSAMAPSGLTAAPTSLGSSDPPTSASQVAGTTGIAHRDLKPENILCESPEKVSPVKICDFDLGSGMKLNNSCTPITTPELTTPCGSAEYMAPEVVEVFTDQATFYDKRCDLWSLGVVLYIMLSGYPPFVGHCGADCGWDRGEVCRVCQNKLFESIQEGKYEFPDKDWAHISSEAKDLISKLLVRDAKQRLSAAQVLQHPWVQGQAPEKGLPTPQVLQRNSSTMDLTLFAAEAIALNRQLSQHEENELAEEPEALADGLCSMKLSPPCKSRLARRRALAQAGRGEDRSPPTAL
Conditions: at 0.1 µM
Description: GSK_PKIS: MKNK1 mean inhibition at 0.1 uM [Nanosyn]
Reported inhibition values for a set of compounds
Answer with a number only, understood to be in %.

As a guide, the following entries are already answered.
Compound	inhibition, %
CC1(C)CC(n2cnc(-c3ccc(F)cc3)c2-c2ccnc(N)n2)CC(C)(C)N1	1.11
CCCNc1cccc(-n2ncc3c(N/N=C/c4ccncc4)ncnc32)c1	31.2
CCOc1ccc2c(-c3ccnc(Nc4cc(OC)cc(C(F)(F)F)c4)n3)cnn2n1	4.65
Cc1cc(O)cc(C)c1/C=C/c1cncc(C(N)=O)c1	9.34
Cc1ccc(-c2cc3c(NC(=O)C4CC4)ncnc3o2)cc1	1.56

// next entry
Indicate the recorded inhibition value for this compound: CC1=C(C(=O)Nc2ccc3[nH]nc(C)c3c2)C(c2ccc(C(F)(F)F)cc2)CC(=O)N1 (stereo unspecified)
3.53

====

Reported inhibition values for a set of compounds
Target: Hepatocyte growth factor receptor (Homo sapiens) (UniProt P08581);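 also: each value is an averaged inhibition figure for MET, taken as the mean across measurements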
Sequence (P08581 whole entry): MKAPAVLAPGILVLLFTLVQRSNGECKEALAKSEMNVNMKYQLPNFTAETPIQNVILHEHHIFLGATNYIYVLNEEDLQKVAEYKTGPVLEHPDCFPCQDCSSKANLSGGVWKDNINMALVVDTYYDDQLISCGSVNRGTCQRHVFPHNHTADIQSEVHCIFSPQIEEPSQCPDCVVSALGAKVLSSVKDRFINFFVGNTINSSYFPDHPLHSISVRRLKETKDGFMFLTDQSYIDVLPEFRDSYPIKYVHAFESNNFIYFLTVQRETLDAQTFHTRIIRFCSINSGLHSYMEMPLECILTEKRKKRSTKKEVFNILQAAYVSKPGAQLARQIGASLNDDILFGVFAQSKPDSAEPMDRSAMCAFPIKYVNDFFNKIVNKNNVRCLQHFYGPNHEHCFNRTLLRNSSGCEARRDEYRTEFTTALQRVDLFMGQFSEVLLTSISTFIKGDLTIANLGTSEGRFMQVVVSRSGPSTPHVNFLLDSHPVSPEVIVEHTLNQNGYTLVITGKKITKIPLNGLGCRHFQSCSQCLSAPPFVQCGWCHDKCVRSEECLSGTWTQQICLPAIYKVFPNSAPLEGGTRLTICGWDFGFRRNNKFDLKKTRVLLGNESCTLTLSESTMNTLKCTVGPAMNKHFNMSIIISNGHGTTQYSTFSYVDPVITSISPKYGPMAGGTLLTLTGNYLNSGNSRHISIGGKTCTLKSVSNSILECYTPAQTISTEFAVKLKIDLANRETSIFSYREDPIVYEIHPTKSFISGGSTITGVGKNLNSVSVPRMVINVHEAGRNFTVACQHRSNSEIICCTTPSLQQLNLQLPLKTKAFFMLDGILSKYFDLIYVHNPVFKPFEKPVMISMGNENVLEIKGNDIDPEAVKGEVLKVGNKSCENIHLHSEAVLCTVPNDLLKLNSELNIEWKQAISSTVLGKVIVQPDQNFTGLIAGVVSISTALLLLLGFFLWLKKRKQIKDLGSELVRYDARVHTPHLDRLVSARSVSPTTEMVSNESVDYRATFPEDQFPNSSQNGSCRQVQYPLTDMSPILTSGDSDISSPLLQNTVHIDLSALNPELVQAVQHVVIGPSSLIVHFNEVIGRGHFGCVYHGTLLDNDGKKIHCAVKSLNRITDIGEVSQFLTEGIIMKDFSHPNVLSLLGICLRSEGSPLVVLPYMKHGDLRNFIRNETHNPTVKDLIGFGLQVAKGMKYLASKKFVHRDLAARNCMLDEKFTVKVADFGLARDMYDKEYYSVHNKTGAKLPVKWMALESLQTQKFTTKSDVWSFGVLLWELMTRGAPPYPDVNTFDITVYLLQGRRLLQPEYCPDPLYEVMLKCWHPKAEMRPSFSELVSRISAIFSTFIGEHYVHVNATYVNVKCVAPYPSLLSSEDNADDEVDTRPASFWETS
Conditions: at 1 µM

As a guide, the following entries are already answered.
Compound	Target Entity	Value
COc1cccc(-n2ncc3c(N/N=C/c4ccc(C(=O)NCCN(C)C)cc4)ncnc32)c1	Hepatocyte growth factor receptor (Homo sapiens) (UniProt P08581)	55.7%
CCOc1ccc2c(-c3ccnc(Nc4cc(OC)cc(C(F)(F)F)c4)n3)cnn2n1	Hepatocyte growth factor receptor (Homo sapiens) (UniProt P08581)	5.18%
FC(F)(F)CNc1nccc(-c2cnn3ncccc23)n1	Hepatocyte growth factor receptor (Homo sapiens) (UniProt P08581)	9.54%
CC1=C(C(=O)Nc2ccc3[nH]ncc3c2)C(c2ccc(F)cc2)N=C(c2ccc(C(F)(F)F)nc2)N1 (stereo unspecified)	Hepatocyte growth factor receptor (Homo sapiens) (UniProt P08581)	2.53%
CN(C)CCNC(=O)Nc1ccc(N(C)c2ccnc(Nc3ccc(CS(C)(=O)=O)cc3)n2)cc1	Hepatocyte growth factor receptor (Homo sapiens) (UniProt P08581)	25.4%

Indicate the recorded inhibition value for this compound: CN1CCC(n2cnc(-c3ccc(F)cc3)c2-c2ccnc(NCCO)n2)CC1
10.6%

Indicate the recorded inhibition value for this compound: CS(=O)(=O)CCNCc1ccoc1-c1ccc2ncnc(Nc3ccc(OCc4ccccc4)cc3)c2c1
4.88%

Indicate the recorded inhibition value for this compound: Fc1cccc(COc2ccc(Nc3ncncc3C#Cc3ccccc3)cc2Cl)c1
5.53%
